Method Summary: NCI Yeast Anticancer Drug Screen. Data for the cln2 rad14 strain (AID 165);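 further: 0% = growth equal to vehicle treated cultures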
Assay Conditions: S. cerevisiae cln2 rad14 strain, at 50.0 µM, stronger effect = higher value
About 79,000 compounds went through this panel and 15% of them were active in at least one assay; those are over-represented in the sample as a whole.
Metric: growth inhibition (%)
Give just the number in %; leave the unit off.

Example cases with answers are listed next.
Q. What value of growth inhibition has been recorded for this entry: O=C1NCCCC1(Cl)Cl
A. -16.3

Q. What value of growth inhibition has been recorded for this entry: BrP(Br)(c1ccccc1)(c1ccccc1)c1ccccc1
A. 25.4

Q. What value of growth inhibition has been recorded for this entry: COc1cc(C2c3[nH]c4ccccc4c3C[C@H]3COC(=O)N23)cc(OC)c1OC (stereo partly specified)
A. 24.4

Q. What value of growth inhibition has been recorded for this entry: C(=C\C1CC2CCCN2O1)/c1ccccc1 (stereo unspecified)
A. -23.4

More entries:
Q. What value of growth inhibition has been recorded for this entry: CC1=CC23C(COC(=O)C24CO4)C(C(=O)O)=CC3C1C (stereo unspecified)
A. 27

Q. What value of growth inhibition has been recorded for this entry: Cn1cc(C(=O)C[n+]2ccccc2)c2ccccc21
A. 3.7
